test: Oral bioavailability in rat; type: ADME, organism-based; conditions: in vivo
Observation Type: bioavailability
Write your answer as a measured quantity: the number, then the unit.

Which value of bioavailability has been reported for COc1cc2c(cc1Cc1cccc(Cl)c1F)c(=O)c(C(=O)O)cn2[C@H](CO)C(C)C in the records?
34%

====

assay: Oral bioavailability in dog; type: ADME, organism-based, Canis lupus familiaris; details: in vivo
Observation Type: bioavailability

Which value of bioavailability has been reported for COc1cc2c(cc1Cc1cccc(Cl)c1F)c(=O)c(C(=O)O)cn2[C@H](CO)C(C)C [ELVITEGRAVIR] in the records?
30%

Hey, just so you know, these numbers are from ChEMBL document CHEMBL1156072.
